tested on: Mucor spinosus IFO5317; test: In vitro antifungal activity, serial agar dilution method (Table 1); assay type: cell-based; details: value in parentheses = Partial Inhibition; Sabouraud dextrose agar (pH 7.0); 28°C for 40 hours
Recorded Partial Inhibition, Mucor spinosus IFO5317 for the following molecules
attribute_measured: Partial Inhibition, Mucor spinosus IFO5317

1) COc1cc(O)c2c(c1)C(=O)c1c(cc3c(c1O)-c1c(cc(C)c(C(=O)N[C@H](C)C(=O)O)c1O)[C@H](O[C@@H]1O[C@H](C)[C@H](N(C)CC(N)=O)[C@H](O[C@@H]4OC[C@@H](O)[C@H](O)[C@H]4O)[C@H]1O)[C@H]3O)C2=O [Ex. 2, N-(carbamoylmethyl) pradimicin A] ... >100.0 (100.0) µg/ml
2) COc1cc(O)c2c(c1)C(=O)c1c(cc3c(c1O)-c1c(cc(C)c(C(=O)N[C@H](C)C(=O)O)c1O)[C@H](O[C@@H]1O[C@H](C)[C@H](N(C)CC(=O)O)[C@H](O[C@@H]4OC[C@@H](O)[C@H](O)[C@H]4O)[C@H]1O)[C@H]3O)C2=O [Ex. 1, N-(carboxymethyl) pradimicin A] ... >100.0 (100.0) µg/ml
3) CN[C@@H]1[C@H](O[C@@H]2OC[C@@H](O)[C@H](O)[C@H]2O)[C@@H](O)[C@H](O[C@H]2c3cc(C)c(C(=O)N[C@H](C)C(=O)O)c(O)c3-c3c(cc4c(c3O)C(=O)c3cc(OC)cc(O)c3C4=O)[C@@H]2O)O[C@@H]1C [Pradimicin A, reference compound] ... 12.5 µg/mL
